- Test system: FaDu
- assay.method.text: mitochondrial oxygen consumption rate normalised to cell number, Z score over the library; higher = higher oxygen consumption (negative = OCR reduction)
- experimental.setup: treatment time 24 h; assay medium: 5 mM galactose, 5 mM pyruvate, 4 mM glutamine; 10 µM
The full ranking holds about 1,600 compounds; the median of “mitochondrial oxygen consumption rate normalised to cell number, Z score over the library” is about 0.065, and the lowest 2% start at about -2.2. This excerpt belongs to a sample that is enriched for the lowest values.
measure.name: mitochondrial oxygen consumption rate normalised

>>> print(df.to_string())
                                   compound  experimental_target  readout_number
0  CCCCC(CC)COC(=O)c1ccccc1O (stereo not given)                 FaDu           0.409
1  Cc1ncc(COP(=O)([O-])[O-])c(CN(CCN(CC(=O)O)Cc2c(COP(=O)([O-])O)cnc(C)c2O)CC(=O)O)c1O.[Mn].[Na+].[Na+].[Na+]                 FaDu           0.342
2     CS(=O)(=O)OCCCCOS(C)(=O)=O [Busulfan]                 FaDu           0.391
3                         C=CCCCCCCCCC(=O)O                 FaDu             1.2
4  O=C(O)CCC(=O)OC[C@@H](NC(=O)C(Cl)Cl)[C@H](O)c1ccc([N+](=O)[O-])cc1                 FaDu           -1.19

---

- Test system: FaDu
- assay.method.text: mitochondrial oxygen consumption rate normalised to cell number, Z score over the library; higher = higher oxygen consumption (negative = OCR reduction)
- experimental.setup: treatment time 24 h; assay medium: 5 mM galactose, 5 mM pyruvate, 4 mM glutamine; 10 µM
Whole data set: some 1,600 compounds, median “mitochondrial oxygen consumption rate normalised to cell number, Z score over the library” near 0.065, cut for the lowest 2% near -2.2. Many of the other results were omitted from the sample, so the lowest values are more common in it than they were.
measure.name: mitochondrial oxygen consumption rate normalised

>>> print(df.to_string())
                                    compound  readout_number
 0  CC1(C)S[C@@H]2[C@H](NC(=O)Cc3ccccc3)C(=O)N2[C@H]1C(=O)O          -0.601
 1              CCOc1ccc2nc(S(N)(=O)=O)sc2c1          -0.459
 2                CS(=O)(=O)OCCCCOS(C)(=O)=O           0.716
 3                COc1ccc2cc(CCC(C)=O)ccc2c1           0.808
 4                 CNNCc1ccc(C(=O)NC(C)C)cc1           0.342
 5              O=C(Oc1cccc2cccnc12)c1ccccc1         -0.0234
 6              O=C(OOC(=O)c1ccccc1)c1ccccc1           0.517
 7  COc1ccc2nc3cc(Cl)ccc3c(Nc3cc(CN4CCCC4)c(O)c(CN4CCCC4)c3)c2n1         -0.0207
 8  NC(=O)[C@@H]1CCCN1C(=O)[C@H](Cc1c[nH]cn1)NC(=O)[C@@H]1CCC(=O)N1            -1.1
 9  Cc1oc(=O)oc1CN1CCN(c2cc3c(cc2F)c(=O)c(C(=O)O)c2n3C(C)S2)CC1 (stereo unspecified)          0.0314
10  OC[C@H]1O[C@@H](n2cnc3c2N=CNC[C@H]3O)C[C@@H]1O [Pentostatin]            0.38

Reference source: the supplement of paper PMC4962491
